The origin of these recorded values is paper PMC3218832.

- Tested On: RELB subunit;p52 subunit (Homo sapiens;Homo sapiens, UniProt Q01201;Q00653 120-401;4-332)
- Sequence 1: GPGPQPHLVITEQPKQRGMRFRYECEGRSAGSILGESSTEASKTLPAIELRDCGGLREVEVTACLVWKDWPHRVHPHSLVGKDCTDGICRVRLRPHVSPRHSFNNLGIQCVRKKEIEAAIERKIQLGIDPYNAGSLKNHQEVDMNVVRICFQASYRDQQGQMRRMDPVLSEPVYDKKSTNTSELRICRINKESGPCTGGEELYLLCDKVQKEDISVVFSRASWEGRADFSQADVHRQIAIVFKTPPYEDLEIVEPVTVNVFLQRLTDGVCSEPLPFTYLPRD
- Sequence 2: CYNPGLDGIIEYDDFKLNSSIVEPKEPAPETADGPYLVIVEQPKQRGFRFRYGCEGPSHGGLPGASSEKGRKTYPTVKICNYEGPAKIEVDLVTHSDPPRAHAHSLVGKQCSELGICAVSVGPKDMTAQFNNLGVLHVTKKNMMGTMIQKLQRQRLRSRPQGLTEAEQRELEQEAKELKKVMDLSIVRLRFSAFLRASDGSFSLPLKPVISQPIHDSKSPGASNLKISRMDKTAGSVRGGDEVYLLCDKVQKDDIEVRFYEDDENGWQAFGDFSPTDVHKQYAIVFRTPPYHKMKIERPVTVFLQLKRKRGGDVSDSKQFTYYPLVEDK
- Assay Comment: protein binding microarray; high values mean tight binding
- Measurement Context: dsDNA, one strand shown
Here the recorded binding signal is given for each entry.
Assay Metric: binding signal (z-score)

- Sequence Record: "GAAGGGACCCC"
  Readout Units: "z-score"
  Test Value: 0.639
- Sequence Record: "CAAATGGTCCT"
  Readout Units: "z-score"
  Test Value: -0.534
- Sequence Record: "CGAGTGGTCCC"
  Readout Units: "z-score"
  Test Value: -0.138
- Sequence Record: "CAAAAGTTCCC"
  Readout Units: "z-score"
  Test Value: 0.512
- Sequence Record: "AAATTCATCCT"
  Readout Units: "z-score"
  Test Value: -0.72
- Sequence Record: "GAATTCGCCCT"
  Readout Units: "z-score"
  Test Value: -0.722
- Sequence Record: "AGATTGGTCCT"
  Readout Units: "z-score"
  Test Value: -0.656
- Sequence Record: "AGGTATTTCCC"
  Readout Units: "z-score"
  Test Value: 1.85
- Sequence Record: "CAGGGTCCCCC"
  Readout Units: "z-score"
  Test Value: 1.39
- Sequence Record: "AAGGAACCCCT"
  Readout Units: "z-score"
  Test Value: 0.874
- Sequence Record: "AAGTGGGCCCT"
  Readout Units: "z-score"
  Test Value: -0.527
- Sequence Record: "CGAATTCTCCT"
  Readout Units: "z-score"
  Test Value: -0.835
- Sequence Record: "AAAAGTCTCCC"
  Readout Units: "z-score"
  Test Value: 0.142
- Sequence Record: "CAAAAAGTCCC"
  Readout Units: "z-score"
  Test Value: 1.75
- Sequence Record: "CGGGGGGTCCC"
  Readout Units: "z-score"
  Test Value: 1.67
- Sequence Record: "CAAGGTATCCC"
  Readout Units: "z-score"
  Test Value: -0.446
- Sequence Record: "AGAAAGTCCCC"
  Readout Units: "z-score"
  Test Value: 1.93
- Sequence Record: "GAGATCCTCCC"
  Readout Units: "z-score"
  Test Value: -0.686
- Sequence Record: "CGATAATTCCC"
  Readout Units: "z-score"
  Test Value: 0.87
- Sequence Record: "AGGGGACTCCC"
  Readout Units: "z-score"
  Test Value: 2.3
- Sequence Record: "GGAATATCCCT"
  Readout Units: "z-score"
  Test Value: 1.04
- Sequence Record: "AGAGATCCCCC"
  Readout Units: "z-score"
  Test Value: 1.98
- Sequence Record: "CAGAGTGTCCC"
  Readout Units: "z-score"
  Test Value: 0.434
- Sequence Record: "CAGTTCTTCCC"
  Readout Units: "z-score"
  Test Value: -0.179
- Sequence Record: "CAGAATCTCCC"
  Readout Units: "z-score"
  Test Value: 0.396
- Sequence Record: "CAAAAACCCCT"
  Readout Units: "z-score"
  Test Value: 2.18
- Sequence Record: "AAGGAGCTCCC"
  Readout Units: "z-score"
  Test Value: -0.874
- Sequence Record: "GAAGGCCCCCC"
  Readout Units: "z-score"
  Test Value: 0.671
- Sequence Record: "CAGGAAACCCC"
  Readout Units: "z-score"
  Test Value: 1.39
- Sequence Record: "GGATACCCCCC"
  Readout Units: "z-score"
  Test Value: 1.52
- Sequence Record: "CAAGAAACCCT"
  Readout Units: "z-score"
  Test Value: -0.353
- Sequence Record: "CAAGAGTCCCC"
  Readout Units: "z-score"
  Test Value: 1.28
- Sequence Record: "GGGATGCCCCT"
  Readout Units: "z-score"
  Test Value: 1.82
- Sequence Record: "AGATTGACCCT"
  Readout Units: "z-score"
  Test Value: -0.605
- Sequence Record: "GGGGGCCTCCC"
  Readout Units: "z-score"
  Test Value: 1.09
- Sequence Record: "GAATGTTTCCC"
  Readout Units: "z-score"
  Test Value: 0.655
- Sequence Record: "CAATACGCCCC"
  Readout Units: "z-score"
  Test Value: 0.503
- Sequence Record: "AAAGTCATCCC"
  Readout Units: "z-score"
  Test Value: -0.628
- Sequence Record: "CAATATACCCC"
  Readout Units: "z-score"
  Test Value: 0.992
- Sequence Record: "GAGGGCATCCC"
  Readout Units: "z-score"
  Test Value: -0.505
- Sequence Record: "GAAAGAATCCT"
  Readout Units: "z-score"
  Test Value: -0.787
- Sequence Record: "AAGTTGATCCC"
  Readout Units: "z-score"
  Test Value: -0.621
